Test: NCI Yeast Anticancer Drug Screen. Data for the sgs1 mgt1 strain (AID 161);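 also: 0% = growth of cultures given vehicle only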
Test Context: S. cerevisiae sgs1 mgt1 strain, at 50.0 µM, active compounds read high
This is part of a sample that, as a whole, favours compounds with a hit. Of some 79,000 tested, about 15% had one in any assay. Activity calls are given as the source filed them. Rule as the data show it: active = growth inhibition above about 70%; inactive = the rest.
Property: growth inhibition

Worked cases, answers included:
Query (molecule): COc1cc(F)ccn1 ; field requested: growth inhibition -12.5% (inactive)

How about CSC1=NSC(c2ccccc2)=C(c2ccccc2)S1 ? 27.8% (inactive)

Query Oc1cc(Cl)cc2c1-c1ccc(Cl)cc1C2O (configuration not stated) next 96.3% (active)

Consider next the molecule CCC[CH2][Sn]([CH2]CCC)([NH]c1ncnc2[nH]cnc12)[NH]c1ncnc2[nH]cnc12 in the same way. 85.5% (active)

Now consider O=C(/C=C/c1ccccc1)CCN1CCOCC1 . 86.5% (active)

Queued: CN1c2ccccc2Sc2c1n[nH]c2-c1ccccc1 98.8% (active)

Consider next the molecule O=C(O)c1c2c(c(O)c3c1CN(C1CCCCC1)CO3)OCN(C1CCCCC1)C2 in the same way. 72.1% (active)

O=C(CCCN1CCC(C(O)c2ccc(F)cc2)CC1)c1ccc(F)cc1 (configuration not stated) , same question. 79.8% (active)

Further cases:
Which growth inhibition value belongs to COc1ccc2c(c1)nc1cc(Cl)ccc1[n+]2C ? 74.1% (active)

And for CC(CCCN(C)Cc1ccccc1)Nc1ccnc2cc(Cl)ccc12 (configuration not stated) ? 99.5% (active)

Try this molecule next: O=C(Nc1ccc(Cl)cc1)c1cccc([N+](=O)[O-])c1O 70.8% (active)

OC(CN1CCc2ccccc2C1)c1ccc2ccccc2c1 (configuration not stated) ? 88.5% (active)

Subsequent entry: O=S(=O)(O)CC[S][Sn]([S]CCS(=O)(=O)O)([c]1ccccc1)[c]1ccccc1 (tested in a mixture with another compound) 88.6% (active)

Now the molecule COC(=O)c1ccc(CCC2=CC(=O)C=CC2=O)cc1 91.2% (active)

Then O=[N+]([O-])c1ccccc1OS(=O)(=O)c1ccccc1 ? -0.45% (inactive)

Repeat for the following molecule: O=[N+]([O-])c1ccc(NS(=O)(=O)c2ccc(Cl)c(Cl)c2Cl)c([N+](=O)[O-])c1 81% (active)

Now consider O=C1CC(c2ccccc2)C(c2ccccc2)CO1 (configuration not stated) . 91.5% (active)

Also CCCCCCCCCCCCCCNC(=O)CCC(NC(=O)c1ccc(N(C)Cc2cnc3nc(N)nc(N)c3n2)cc1)C(=O)NCCCCCCCCCCCCCC (configuration not stated) ? 86.3% (active)

Can you check O=[N+]([O-])c1ccc(Sc2ccc([N+](=O)[O-])o2)o1 next? 99.4% (active)

====

Test: NCI Yeast Anticancer Drug Screen. Data for the rad50 strain (AID 155);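 also: 0% = growth of vehicle-only cultures of the same strain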
Test Context: S. cerevisiae rad50 strain growth inhibition; at 50.0 µM; active compounds read high
This is part of a sample that, as a whole, favours compounds with a hit. Of some 79,000 tested, about 15% had one in any assay.
Property: growth inhibition (%)
Give the value, in units of %, as a plain number.

Look up growth inhibition for this molecule: COc1cc(C=O)c(C=O)cc1OC 69.9

Now for the molecule whose growth inhibition we want.
# growth inhibition lookup, item C/C(=N/O)C1CC(CCC2([N+](=O)[O-])CCC(C)(O)C(/C(C)=N/O)C2)([N+](=O)[O-])CCC1(C)O (stereo not drawn) 12.7

====

Test: NCI Yeast Anticancer Drug Screen. Data for the mlh1 rad18 strain (AID 175)
Test Context: S. cerevisiae mlh1 rad18 strain growth inhibition; at 50.0 µM (retest, dose inferred, filed as 5.0); active compounds read high
The panel holds about 79,000 compounds, 15% with a hit somewhere; the sample as a whole holds those more often.
Listing of recorded growth inhibition by entry.
Numbers only; they are read as %.

Check out these entries, answers already filled in.
Can you look up the measured growth inhibition of O=C1NC(=O)c2cccc3cccc1c23 for me? 55

Try CC(=O)/C(=C\c1ccc(Cl)cc1Cl)C(=O)CCN(C)C next. 98

Please do the same for CCCCCCCCCCCCNC(=O)c1ccc[n+](Cc2ccc(Cl)c(Cl)c2)c1 as well. 99

What about CCCC(C1=C(O)CC(C)CC1=O)C1=C(O)CC(C)CC1=O (stereo unspecified) ? 28

Another compound to look at: CCOC(=O)Nc1ccc(SCC2COC(Cn3ccnc3)(c3ccc(Cl)cc3Cl)O2)cc1 (stereo unspecified) 90

Moving on to another compound below.
Value lookup for growth inhibition; key = CCC(=O)/C(=C\c1ccccc1)C(=O)C(C)CN(C)C (stereo unspecified) 24

====

Test: NCI Yeast Anticancer Drug Screen. Data for the rad50 strain (AID 155);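 also: 0% = growth of vehicle-only cultures of the same strain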
Test Context: S. cerevisiae rad50 strain growth inhibition; at 50.0 µM (retest, dose inferred, filed as 5.0); active compounds read high
About 79,000 compounds went through this panel and 15% of them were active in at least one assay; those are over-represented in the sample as a whole.
Property: growth inhibition (%)
Numbers only; they are read as %.

Solved cases below.
// growth inhibition lookup, key: C[C@]12CC[C@H](O)CC1=CC[C@@H]1C2CC[C@]2(C)C(=O)N(N)C(=O)CC12 (stereo not given in full) 92

Queued: CCCCCCCCCCCc1nnc(N)o1 91

Lookup CC(C)CC(CC(C)C)NCC(C)OC(=O)C(c1ccccc1)c1ccccc1 (stereo not given) 94

***
# get_value(readout='growth inhibition', item= CC(=O)Nc1ccc(S(=O)(=O)/N=C2\C=CC(=O)c3ccccc32)cc1 ) 27

Here is the next molecule: Cc1ccc(Nc2nc3c(s2)C(=O)c2ccccc2C3=O)cc1 97

How about this molecule: CCCCCCCCCCCCNC(=O)C[n+]1cccc(C(=O)Nc2ccccc2)c1 97

Do the same for O=C(Nc1ccccc1)OCCN=C1c2ccccc2CCc2ccccc21 please 95

What do you have for O=C(N/N=C/c1ccccc1[O-])c1ccccc1O.O=C(N/N=C/c1ccccc1[O-])c1ccccc1O.[Mn+2] ? 99

Would you mind doing Cc1cc(C)c(Cc2ccccc2O)cc1Cc1ccccc1O as well? 47

Another: COc1cccc2c1C(=O)c1c(O)c3c(c(O)c1C2=O)C[C@@](O)(C(O)CO)C[C@@H]3OC1CC(N(Cc2ccccc2)Cc2ccccc2)C(O)C(C)O1 (stereo not given in full) 98

====

Test: NCI Yeast Anticancer Drug Screen. Data for the sgs1 mgt1 strain (AID 161);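 also: 0% = growth of cultures given vehicle only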
Test Context: S. cerevisiae sgs1 mgt1 strain, at 5.0 µM (retest, dose inferred, filed as 0.5)
About 79,000 compounds went through this panel and 15% of them were active in at least one assay; those are over-represented in the sample as a whole. Active and inactive are the calls of the source. Cut-off read from the data, not from the text of the source: active = growth inhibition above about 70%; inactive = the rest.
Choose the fitting class; nothing outside active, inactive is accepted.

Here's what some known entries look like.
Hello, I am checking results. What call was entered for C=C(CN(C)C)C(=O)c1ccccc1C ? inactive

Please give the result for C=CCNc1nc2c(s1)C(=O)c1ccccc1C2=O too. active

Same thing, different compound: O=[N+]([O-])c1ccc(C(Br)(Br)c2ccc([N+](=O)[O-])cc2)cc1 active

And COC(=O)/C=C(\C)Nc1ccc(Cc2ccc(Cl)cc2)cc1 ? inactive

Now consider C/C(=N\NC(=S)N1CCN(c2cnccn2)CC1)c1ccccn1 . inactive

***
Which outcome did this test record for the compound O=CCCCc1cc2c(cc1Br)CCC2 ? inactive

Follow-up item: C=C1CC(COc2ccc3c(C)cc(=O)oc3c2)(c2ccccc2)OC1=O (centres undefined) inactive

What do you have for CCOC(=O)c1ccc(-c2cccs2)n1C ? inactive

====

Test: NCI Yeast Anticancer Drug Screen. Data for the rad50 strain (AID 155);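 also: 0% = growth of vehicle-only cultures of the same strain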
Test Context: S. cerevisiae rad50 strain growth inhibition; at 50.0 µM
This is part of a sample that, as a whole, favours compounds with a hit. Of some 79,000 tested, about 15% had one in any assay. Calls of active or inactive are those of the source. Rule as the data show it: active = growth inhibition above about 70%; inactive = the rest.
Choose the fitting class; nothing outside true for active, false for inactive is accepted.

Consider the following illustrative entries.
Test call, this molecule: Cc1ccc2c(c1)nc1n2C(N)=Nc2ccccc2S1 false

Another: N#Cc1c(-c2ccc([N+](=O)[O-])cc2)c(C#N)c(=O)n(NS(=O)(=O)c2ccccc2)c1S false

Please give the result for OC(c1ccc(Cl)cc1)c1ccc(Cl)cc1 too. true

New cases:
For CCOC(=O)c1sc2c(c1O)c(=O)n(-c1ccccc1)c(=S)n2-c1ccccc1 , which call appears in the assay record? true

And CC(=O)Oc1ccc2ccccc2c1CN(Cc1c(OC(C)=O)ccc2ccccc12)C(C)=O ? true

Now give it for CN1C(=O)CCC2[C@@H]3CC=C4C[C@@H](O)CC[C@]4(C)C3CC[C@@]21C (stereo not given in full) too. false

====

Test: NCI Yeast Anticancer Drug Screen. Data for the cln2 rad14 strain (AID 165);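 also: 0% = growth equal to vehicle treated cultures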
Test Context: S. cerevisiae cln2 rad14 strain, at 50.0 µM
This is part of a sample that, as a whole, favours compounds with a hit. Of some 79,000 tested, about 15% had one in any assay. Active and inactive are the calls of the source. Rule as the data show it: active = growth inhibition above about 70%; inactive = the rest.
Choose the fitting class; nothing outside Yes for active, No for inactive is accepted.

Previously resolved entries follow.
Give the logged outcome of this assay for the following compound: C/C(O)=C(/C=N/C(=S)Nc1ccc(S(N)(=O)=O)cc1)C(=O)Nc1ccccc1C Yes

Further, for COc1cccc(-c2cc(=O)c3c(C)ccnc3[nH]2)c1 ? No

Input N#C/C(=C\c1cc(Cl)cc(Cl)c1O)C(/C(C#N)=C/c1cc(Cl)cc(Cl)c1O)c1ccc2c(c1)OCO2 (stereo not given) Yes

Next compound: CCN(CC)CCOC(=O)c1ccc(N=Nc2ccc(O)c3ccccc23)cc1 Yes

Attention now shifts to the item below.
Could you please tell me the result logged for O=C1C(Br)=C(Sc2ccc([N+](=O)[O-])cc2)C(=O)c2ccccc21 in this assay? Yes

Ref: PubChem BioAssay (NCI)
